As shown below, each of these compounds has a reported parasite growth, % of DMSO control value.
Test: qHTS profiling of the MIPE4 collection as inhibitors of Plasmodium falciparum (3D7) proliferation (AID 743344);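 also: scaled between DMSO vehicle wells and 0.29 µM artemisinin as full inhibition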
Details: P. falciparum 3D7 in erythrocytes, SYBR Green DNA fluorescence, 72 h; at 28.5 µM unless noted
Give the number; % is assumed, so skip it.

CC(C)c1ccc2c(c1)c(SC(C)(C)C)c(CC(C)(C)C(=O)O)n2Cc1ccc(Cl)cc1 ... 21.7

Request: Report parasite growth, % of DMSO control for N[C@@H](Cc1cc(I)c(Oc2cc(I)c(O)c(I)c2)c(I)c1)C(=O)O
Response: 89.8

Request: Report parasite growth, % of DMSO control for Nc1ncn([C@H]2C[C@H](O)[C@@H](CO)O2)c(=O)n1
Response: 98
